Molecular target: Follistatin-related protein 3 (Homo sapiens) (UniProt O95633)
Sequence (O95633 whole entry, looked up): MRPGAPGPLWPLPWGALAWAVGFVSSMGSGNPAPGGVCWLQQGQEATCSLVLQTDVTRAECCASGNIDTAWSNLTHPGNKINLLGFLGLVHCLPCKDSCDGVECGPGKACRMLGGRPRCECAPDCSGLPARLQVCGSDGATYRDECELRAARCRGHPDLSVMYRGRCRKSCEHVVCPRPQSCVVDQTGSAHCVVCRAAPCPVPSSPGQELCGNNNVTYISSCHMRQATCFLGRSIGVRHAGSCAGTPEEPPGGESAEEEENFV
Experiment: FSTL3 binders on small-molecule microarrays, primary screen, biochemical, small-molecule microarray, 635 nm fluorescence (AID 1105);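 further: score merges emission near 667 nm and signal to noise per printed spot across three slides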
Settings: FSTL3 binding, higher = more signal
value_kind: composite z-score
Enter a number only.

Please review the entries below; each comes with its answer.
C=C(COC)/C(=C/C[C@@H](OC(=O)c1ccncc1)c1cccc(OCCO)c1)c1cnc2ccccc2c1
1.65
COCCOC(=O)N1C(=O)[C@@]2(c3cc(C#CC4=CCCCC4)ccc31)[C@H](c1ccc(O)cc1)N1[C@H](c3ccccc3)[C@H](c3ccccc3)OC(=O)[C@H]1[C@@H]2C(=O)Nc1nc2ccccc2s1
1.19

Note down composite z-score recorded for `COc1ccc([Si](C)(C)[C@@H]2[C@@H](CCO)O[C@]3(C(=O)N(Cc4cccc(N5C(=O)c6ccccc6Oc6ccccc65)c4)c4ccccc43)[C@H]2C)cc1`
-0.491

----------
Target: Epidermal growth factor receptor (Homo sapiens)
Test: EGFR binders on small-molecule microarrays, primary screen, biochemical, small-molecule microarray, 635 nm fluorescence (AID 1104);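 further: score merges 667 nm emission intensity with spot signal to noise over triplicate slides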
Conditions: EGFR binding, higher = more signal
Would you please tag the item 1 (yes) when its composite z-score is 0.3 or above, and 0 (no) when it is below?

NC(N)=NCc1cn(CCc2c[nH]c3ccccc23)nn1
1 (yes)
CCOC(=O)[C@H]1C/C=C/C[C@H](C(=O)OCC)C(=O)O[C@H]2[C@@H](OC)O[C@H](CO)[C@@H](OC(=O)Nc3ccc(OC)cc3)[C@@H]2OC1=O
1 (yes)
CCOC(=O)[C@H]1C/C=C/C[C@H](C(=O)OCC)C(=O)O[C@H]2[C@@H](OC)O[C@H](CO)[C@@H](OC(=O)CCc3ccccc3)[C@@H]2OC1=O
0 (no)
C=CC[C@@]1(C(=O)N2CCCCC2)N=C(c2ccc(OCCCO)cc2)O[C@@H]1c1ccccc1
0 (no)
C=C(C(=O)CC[C@H](OC(=O)c1cccnc1)c1ccc(CO)o1)C(C)C
0 (no)

Does CC(=O)n1cc(C(O)C2C=CC3C(=O)N(Cc4ccccc4)C(=O)C3N2n2cnnc2)c2ccccc21 (stereo not given) have a reported composite z-score of at least 0.3?
0 (no)

Determine whether measured composite z-score meets or exceeds 0.3 for `CN(C)CCCNC(=O)[C@@]1(c2ccc([N+](=O)[O-])cc2)CC(=O)N(CC23CC4CC(CC(C4)C2)C3)[C@@H]1c1ccc(CO)cc1`
0 (no)

Is the recorded value of composite z-score equal to or greater than 0.3 for this molecule? `C=CCN1C(=O)[C@]2(CC=C)N=C(c3ccc(OCCCO)cc3)O[C@@H]2c2ccccc21`
1 (yes)

Please indicate if the recorded composite z-score for `COc1ccc([Si](C)(C)[C@H]2[C@H](CCn3cc([C@H](O)c4ccccc4)nn3)O[C@@]3(C(=O)N(Cc4ccc(N5CCC5=O)cc4)c4ccccc43)[C@@H]2C)cc1` meets or exceeds 0.3.
1 (yes)

Hello, I need to know if CC(CO)N1C(=O)[C@@H]2C3C(=O)OCCC/C=C\[C@H]3OC23C=CCN(Cn2nnc4ccccc42)C(=O)[C@@H]13 (stereo not given in full) has measured composite z-score not below 0.3. Thanks!
0 (no)

----------
System: glycogen synthase kinase-3 (GSK3A per assay name; protocol says GSK3B)
Assay: GSK3 binders on small-molecule microarrays, primary screen, biochemical, small-molecule microarray, 635 nm fluorescence, GSK3A (AID 1103); further: the record names both GSK3A and GSK3B
Settings: small-molecule microarray binding, fluorescence 635 nm; higher = more signal
value_kind: composite z-score
When you answer, write just the number.

Please give the documented composite z-score of `C=C(COC)/C(=C/C[C@@H](OC(=O)c1ccncc1)c1ccc(CO)o1)c1cnc2ccccc2c1`
1.35

Supply measured composite z-score of C=CCC(OC(C)=O)[C@@H]1[C@@H](N(Cc2ccc(-c3ccccc3)cc2)C(=O)c2cccc3ccccc23)c2cc(OCCCO)ccc2N1C(=O)Cc1ccc2ccccc2c1 (some centres not stated) in your reply.
-0.202

Report measured composite z-score; entry is `CN(C)CCCNC(=O)[C@@]1(c2ccc([N+](=O)[O-])cc2)CC(=O)N(CC23CC4CC(CC(C4)C2)C3)[C@@H]1c1ccc(CO)cc1`
1.32

Give the reported composite z-score for this compound. CC(CO)N1C(=O)[C@@H]2C3C(=O)OCCC/C=C\[C@H]3OC23C=CCN(Cn2nnc4ccccc42)C(=O)[C@@H]13 (some centres not stated)
-0.527

Give me measured composite z-score, please, for this compound: `[N-]=[N+]=Nc1ccccc1[C@@H]1OC(c2ccc(OCCCO)cc2)=N[C@]1(CCS(=O)(=O)c1ccccc1)C(=O)NCCN1CCOCC1`
1.29

Output composite z-score of `COCCCNC(=O)[C@]1(CCC(=O)OC(C)(C)C)N=C(c2ccc(OCCCO)cc2)O[C@@H]1c1ccccc1`
1.28

For the compound `COC(=O)[C@@]1(Cc2ccccc2)[C@H]2c3cc(C(=O)N4CCCC4)n(C[C@H](O)CO)c3C[C@H]2CN1C(=O)c1ccccc1` , report composite z-score.
-0.0288

----------
Target: Homeobox protein Hox-A13 (Mus musculus)
Test: inhibitors of HoxA13-DNA binding, primary screen, biochemical, fluorescence polarization, labeled oligonucleotide (AID 1185)
Details: 15 min, higher = more signal, called active from +8 up or from −8 down
Kind request: treat -4 as inclusive, so z-score at -4 or higher is Y, anything lower is N.

These solved cases illustrate the format of a correct answer.
O=C1NCC(=O)N2[C@@H]1C[C@@H](C(=O)O)[C@H]2c1ccc(O)cc1
Y
CCN(CC)c1ccc(N2CC=CC34O[C@@H]5/C=C\CCC(C)OC(=O)C5[C@H]3C(=O)N(CCO)[C@@H]4C2=O)cc1 (stereo partly specified)
N
C=CCOC(=O)[C@@H]1[C@H]2C(=O)O[C@H](c3ccccc3)[C@H](c3ccccc3)N2[C@H](c2ccc(OCCOC(=O)[C@H]3C[C@H]4C(=O)N[C@@H](CCCCN(C)C)C(=O)N4[C@H]3c3cccc(OCCO)c3)cc2)[C@@]12C(=O)Nc1ccc(I)cc12
Y
COCCOC(=O)N1C(=O)[C@@]2(c3cc(C#CC4=CCCCC4)ccc31)[C@H](C(=O)N1CCN(c3ncccn3)CC1)[C@H]1C(=O)O[C@H](c3ccccc3)[C@H](c3ccccc3)N1[C@@H]2c1ccc(O)cc1
Y
C=C(CCCC)/C(=C/C[C@@H](OC(=O)c1ccncc1)c1cccc(OCCO)c1)c1cnc2ccccc2c1
Y

Then there is this compound:
Determine whether this compound has z-score no lower than -4: O=C1OCC=C[C@H]2OC34C=CCN(c5ccc(Cl)cc5)C(=O)[C@H]3N(CCCCCO)C(=O)[C@@H]4[C@@H]12 (stereo partly specified)
Y

----------
System: Noggin (protein binding on small-molecule microarray)
Assay: Noggin binders on small-molecule microarray, primary screen, biochemical, 635/667 nm fluorescence (AID 1095);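 further: score merges 667 nm feature fluorescence with signal to noise over triplicate slides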
Details: 635 nm fluorescence, higher = more signal
A collection of molecules and their measured composite z-score
Form rule: numeric answer, no unit written next to it.

These solved cases illustrate the format of a correct answer.
C=CCOC(=O)[C@@H]1[C@H]2C(=O)O[C@H](c3ccccc3)[C@H](c3ccccc3)N2[C@H](c2ccc(OCCOC(=O)[C@H]3C[C@H]4C(=O)N[C@@H](CCCC[N+](C)(C)C)C(=O)N4[C@H]3c3ccc(O)cc3)cc2)[C@@]12C(=O)Nc1ccc(I)cc12
1.94
O=c1cccc(-c2ccc(C(F)(F)F)cc2)o1
-0.161

Here is the next item to consider.
Fill in reported composite z-score for this entry: `COC(=O)[C@@]1(Cc2ccc(OC)cc2)[C@H]2c3cc(C(=O)N4CCCC4)n(CCc4cc5ccccc5[nH]4)c3C[C@H]2CN1C(=O)c1ccccc1`
0.364

----------
Assay: HepG2 liver cancer cell viability effects, profiling panel, resazurin fluorescence, 24 h, PK04 Diversity Set (AID 1172); further: test concentration not given here
Settings: higher = more signal
Could you label it Y if measured z-score is -0.5 or higher, and N otherwise?

COc1cc2c(cc1OC)CN(C(=O)[C@H]1[C@@H]3C(=O)O[C@@H](c4ccccc4)[C@@H](c4ccccc4)N3[C@@H](c3ccc(OCCO)cc3)[C@]13C(=O)Nc1ccc(C#CCCO)cc13)CC2
Y
C=C(COC)/C(=C/C[C@@H](OC(=O)c1ccncc1)c1cccc(OCCO)c1)c1cnc2ccccc2c1
Y
COCCOC(=O)N1C(=O)[C@@]2(c3cc(C#CC4(O)CCCCCC4)ccc31)[C@H](c1ccccc1OCCO)N1[C@H](c3ccccc3)[C@H](c3ccccc3)OC(=O)[C@H]1[C@@H]2C(N)=O
N
Cc1ccc(S[C@]2(C(=O)O)CC(=O)N(Cc3ccccc3Cl)[C@@H]2c2ccc(CO)cc2)cc1
N

z-score >= -0.5 for `COCC(=C=CC[C@H](O)c1ccc(OCCO)cc1)C[C@H](O)COCc1ccccc1` ?
Y

Test whether the molecule `Cc1ccc(S[C@]2(C(=O)NCc3ccccc3)CC(=O)N(C(C)C)[C@@H]2c2ccc(CO)cc2I)cc1` records z-score of -0.5 or higher.
Y

Has `C=CC[C@]1(C(=O)N(C)C)N=C(c2ccc(OCCCO)cc2)O[C@H]1c1ccccc1N=[N+]=[N-]` a recorded z-score greater than or equal to -0.5?
Y
